Just for reference, PubChem BioAssay AID624167 is where these values come from.

- testName: inhibition of PEG-3 promoter-driven reporter – cell-based, HeLa, luciferase, CREF/GAPDH counter-screen panel, dose response (AID 624167)
- conditionParameters: CREF/GAPDH counter-screens; run 2, dose range 1, at 100 µM (top of the series)
Definition: the class of an entry is the range in bin 0: < 70%; bin 1: ≥ 70% and < 80%; bin 2: ≥ 80% that contains its inhibition.

COc1cc(CNCCCN2CCOCC2)cc(Br)c1OCc1ccc(Cl)cc1    bin 2

Returns: class label. Input: O=C(NNC(=O)c1cccnc1SCc1cccc([N+](=O)[O-])c1)c1ccccn1
bin 0

---

Recorded inhibition for the following compounds
- testName: inhibition of PEG-3 promoter-driven reporter – cell-based, HeLa, luciferase, CREF/GAPDH counter-screen panel, dose response (AID 624167)
- conditionParameters: CREF/GAPDH counter-screens; run 2, dose range 1, at 100 µM (top of the series)
Dear colleague, please send the value followed by its unit.

Look up and state reported inhibition for O=C(N/N=C\c1c(O)ccc2ccccc12)c1cncc(Br)c1
72.8%

Look up and state reported inhibition for Nc1nonc1-n1nnc(C(=O)N/N=C/c2cc(Br)ccc2O)c1CNc1ccccc1
66.5%

Look up and state reported inhibition for Cc1oc(-c2ccc3c(c2)OCCO3)cc1C(=O)O
97.9%

Look up and state reported inhibition for COc1cc(C(=O)N/N=C(\c2ccccc2)c2ccccn2)cc(OC)c1OC
11.7%

Look up and state reported inhibition for CCc1ccn2cc(-c3ccc4c(c3)OCO4)nc2c1
97.5%

Look up and state reported inhibition for CCCCCCN1C=C/C(=C\C=C(C#N)C#N)c2ccccc21
22.9%

---

- testName: inhibition of PEG-3 promoter-driven reporter – cell-based, HeLa, luciferase, CREF/GAPDH counter-screen panel, dose response (AID 624167)
- conditionParameters: CREF/GAPDH counter-screens; run 2, dose range 1, at 100 µM (top of the series)
Recorded inhibition for the following compounds
# unit: % | format: bare number

# count of solved cases: 2
Cc1nc(C)c(C(=O)N/N=C/c2cc(Br)ccc2O)s1    6.13
CCCCC(=O)NC(c1ccccc1OC)c1ccc2cccnc2c1O (stereo not given)    50.9

Look up and state reported inhibition for CN1C/C(=C/c2ccccc2[N+](=O)[O-])C(=O)/C(=C\c2ccccc2[N+](=O)[O-])C1
53.9

Look up and state reported inhibition for CS(=O)(=O)Nc1cccc(NC(=O)C2Cc3c(-c4ccccc4)ccnc3O2)c1 (stereo not given)
54.2

Look up and state reported inhibition for C/C(=N\NC(=O)c1c(C)nc2ccccn12)c1ccc(O)cc1O
7.76

---

- testName: inhibition of PEG-3 promoter-driven reporter – cell-based, HeLa, luciferase, CREF/GAPDH counter-screen panel, dose response (AID 624167)
- conditionParameters: CREF/GAPDH counter-screens; run 2, dose range 1, at 100 µM (top of the series)
Recorded inhibition for the following compounds
Dear colleague, please send the value followed by its unit.

# count of solved cases: 4
CS(=O)(=O)c1ccc(-c2cn3cc(C(=O)O)ccc3n2)cc1    78.3%
COc1ccc(-n2cc(-c3ccccc3)c3c(N4CCOCC4)ncnc32)cc1    91.3%
O=C(O)c1ccc(N/N=C/c2ccc3nccnc3c2)cc1    99.2%
O=[N+]([O-])c1nn(-c2ccc3c(c2)OCCO3)n(O)c1=Nc1ccc(Cl)cc1    80.8%

Kindly review the next compound as well.
Look up and state reported inhibition for C=CCn1c(C)cc(C(=O)COc2ccc(C)nc2[N+](=O)[O-])c1C
51.8%

---

- testName: inhibition of PEG-3 promoter-driven reporter – cell-based, HeLa, luciferase, CREF/GAPDH counter-screen panel, dose response (AID 624167)
- conditionParameters: CREF/GAPDH counter-screens; run 2, dose range 1, at 100 µM (top of the series)
Recorded inhibition for the following molecules
# unit: % | format: bare number

# count of solved cases: 4
O=C(O)c1ccc(N/N=C/c2ccc3c(c2)OCO3)cc1    97.7
Cc1ccc(-n2c(N)c(C(=O)Nc3c(C)n(C)n(-c4ccccc4)c3=O)c3nc4ccccc4nc32)cc1    81.3
CS(=O)(=O)c1ccc(-c2sc3ccccc3c2C#CCCO)cc1    81.8
COc1ccc2c(c1)c(=Cc1ccc(N(C)C)cc1)c1cc(-c3ccccc3)[n+](C)n12    99.9

Look up and state reported inhibition for CCCC(=O)NC(c1ccc(C(C)C)cc1)c1ccc2cccnc2c1O (stereo unspecified)
45.7

Look up and state reported inhibition for CN(C)S(=O)(=O)c1ccc(-c2csc(N/N=C/c3ccc(O)cc3)n2)cc1
91.1

---

- testName: inhibition of PEG-3 promoter-driven reporter – cell-based, HeLa, luciferase, CREF/GAPDH counter-screen panel, dose response (AID 624167)
- conditionParameters: CREF/GAPDH counter-screens; run 2, dose range 1, at 100 µM (top of the series)
measurementLabel: inhibition (%)
# unit: % | format: bare number

# count of solved cases: 3
CC(=O)NC(c1ccc(Cl)cc1Cl)c1ccc2cccnc2c1O (centres undefined)    61.7
COc1ccc(NC(=O)c2cc(-c3ccccn3)nc3ccccc23)cc1S(=O)(=O)N(C)C    60.4
C=CCn1c(COc2ccccc2)nnc1SC(C)C(=O)N/N=C/c1cc(Cl)ccc1O (centres undefined)    59.9

Look up and state reported inhibition for O=C(Nc1ccccc1C(=O)Nc1nnc(C(F)(F)F)s1)c1ccccc1
60.9

---

- testName: inhibition of PEG-3 promoter-driven reporter – cell-based, HeLa, luciferase, CREF/GAPDH counter-screen panel, dose response (AID 624167)
- conditionParameters: CREF/GAPDH counter-screens; run 2, dose range 1, at 100 µM (top of the series)
Please mark yes if the recorded inhibition is equal to or greater than 80%, and no if it falls below.

Known results for molecules:
CCCCC(=O)NC(c1ccc(OC)cc1)c1ccc2cccnc2c1O (stereo not drawn)    no
Cc1ccc(/C=C2\SC(=S)N(CCCC(=O)NNC(=O)c3ccccc3O)C2=O)cc1    no
Cc1cc(Br)ccc1NC(=O)CNC(=O)Cn1ncc(Cl)c(Cl)c1=O    yes
CC(=O)c1cccc(-c2ccnc3c2CC(C(=O)Nc2cccc(NS(C)(=O)=O)c2)O3)c1 (stereo not drawn)    no
COc1cc(OC)c2cc(C(=O)N/N=C/c3ccccc3O)[nH]c2c1    no

Please look at the following molecule next.
State whether the measured inhibition reaches 80%, counting equality as reaching it, for NS(=O)(=O)c1ccc(CCNc2nn3c(-c4ccc(F)c(Cl)c4)cnc3s2)cc1
no
